Collected QY (fluorescence quantum yield, Φfl) values appear next to each entry.
assay: Emission spectra and fluorescence quantum yield; assay type: physicochemical; settings: in methanol
Structures can show the parent of a compound that is named as a salt.

{"molecule": "CN(C)c1ccc2c(P(=O)(Oc3ccccc3C(=O)[O-])N(C)C)c3ccc(=[N+](C)C)cc-3oc2c1 (stereo not shown)", "QY (fluorescence quantum yield, Φfl)": 0.36}
{"molecule": "CN(C)c1ccc2c(c1)-c1cccc3c(N(C)C)ccc(c13)C2.[O-][Cl+3]([O-])([O-])O [Compound 28d]", "QY (fluorescence quantum yield, Φfl)": 0.25}
{"molecule": "CN(C)c1ccc2c([PH](=O)O)c3ccc(N(C)C)cc3[n+](CCCC(=O)O)c2c1.O=C([O-])C(F)(F)F", "QY (fluorescence quantum yield, Φfl)": 0.75}
{"molecule": "COP(=O)(OC)c1c2ccc(N(C)C)cc2[n+](C)c2cc(N(C)C)ccc12 [Compound 22, trifluoroacetate]", "QY (fluorescence quantum yield, Φfl)": 0.95}

----------
test: Emission spectra and fluorescence quantum yield; type: physicochemical; conditions: in aq. PBS, pH 7.4
Criterion: Emission max. meeting or surpassing 700 nm. Met: true (1). Not met: false (0).

{"molecule": "COP(=O)([C+]1c2ccc(N(C)C)cc2-c2cccc3c(N(C)C)ccc1c23)N(C(C)C)C(C)C.O=C([O-])C(F)(F)F (stereo not shown)", "class_label": "true (1)"}
{"molecule": "CC[N+](CC)=c1ccc2c(P(=O)(OC)OC)c3c(oc-2c1)-c1ccc(N(C)C)cc1CC3.O=C([O-])C(F)(F)F", "class_label": "true (1)"}
{"molecule": "CCOP(=O)(CC(=O)[O-])c1c2ccc(N(C)C)cc2[o+]c2cc(N(C)C)ccc12 (stereo not shown)", "class_label": "false (0)"}
{"molecule": "CN(C)c1ccc2c(P(=O)([O-])CCC(=O)O)c3ccc(=[N+](C)C)cc-3oc2c1", "class_label": "false (0)"}
{"molecule": "COP(=O)(c1c2ccc(N(C)C)cc2[o+]c2cc(N(C)C)ccc12)N(C(C)C)C(C)C.O=C([O-])C(F)(F)F (stereo not shown)", "class_label": "false (0)"}
{"molecule": "CN(C)c1ccc2c([PH](=O)[O-])c3ccc(N(C)C)cc3[o+]c2c1", "class_label": "false (0)"}
{"molecule": "COP(=O)([O-])C1=c2cc3c4c(c2Oc2c1cc1c5c2CCCN5CCC1)CCC[N+]=4CCC3", "class_label": "false (0)"}

----------
test: Stability of the dyes
Where a name gives a salt, the structure may show the parent alone.

{"compound": "C=CCOP(=O)(C1=C2C=CC(=[N+](C)C)C=C2C(C)(C)c2cc(N(C)C)ccc21)N(C(C)C)C(C)C (stereo not drawn)", "Stability": "poor"}
{"compound": "CN(C)c1ccc2c(P(=O)(Oc3ccccc3C(=O)[O-])N(C)C)c3ccc(=[N+](C)C)cc-3oc2c1 (stereo not drawn)", "Stability": "moderate"}
{"compound": "CC(C)OP(=O)(OC(C)C)C1=C2C=CC(=[N+](C)C)C=C2C(C)(C)c2cc(N(C)C)ccc21", "Stability": "moderate"}
{"compound": "COP(=O)([c+]1c2ccc(N(C)C)cc2sc2cc(N(C)C)ccc21)N(C(C)C)C(C)C.O=C([O-])C(F)(F)F (stereo not drawn)", "Stability": "moderate"}
{"compound": "COP(=O)([C+]1c2ccc(N(C)C)cc2-c2cccc3c(N(C)C)ccc1c23)N(C(C)C)C(C)C.O=C([O-])C(F)(F)F (stereo not drawn)", "Stability": "poor"}
{"compound": "C=CCOP(=O)(C1=c2cc3c(cc2C(C)(C)c2cc4c(cc21)CCCN4CCOC)=[N+](CCOC)CCC3)N(C(C)C)C(C)C (stereo not drawn) [Compound 26, trifluoroacetate]", "Stability": "poor"}

----------
# Absorption max. values compiled below
assay: Absorption spectroscopy (UV/Vis); format: physicochemical; conditions: in aq. PBS, pH 7.4
measurement_label: Absorption max.

{"compound": "CN(C)c1ccc2c(P(=O)(c3ccccc3)c3ccccc3)c3ccc(N(C)C)cc3[o+]c2c1.O=C([O-])C(F)(F)F", "measurement_label": "Absorption max.", "observed": "601 nm"}
{"compound": "CN(C)c1ccc2c(P(=O)(Oc3ccccc3C(=O)[O-])N(C)C)c3ccc(=[N+](C)C)cc-3oc2c1 (stereo not drawn)", "measurement_label": "Absorption max.", "observed": "603 nm"}
{"compound": "CN(C)c1ccc2c([PH](=O)[O-])c3ccc(N(C)C)cc3[o+]c2c1", "measurement_label": "Absorption max.", "observed": "590 nm"}

----------
assay: Emission spectra and fluorescence quantum yield; assay type: physicochemical; details: in acetonitrile
Marks after values point to notes of the source that are not given here.

{"compound": "COP(=O)(OC)c1c(-c2nc3ccccc3s2)c(=O)oc2cc(N3CC(O)C3)ccc12", "Stokes shift": "227^a nm"}
{"compound": "CC1=CC(C)=[N+]2C1=C(P(=O)(OC(C)C)OC(C)C)c1c(C)cc(C)n1[B-]2(F)F", "Stokes shift": "73^a nm"}
{"compound": "CCN(CC)c1ccc2c(P(=O)(OC(C)(C)C)OC(C)(C)C)c(-c3nc4ccccc4s3)c(=O)oc2c1", "Stokes shift": "224^a nm"}
{"compound": "CCN(CC)c1ccc2c(P(=O)(OC)OC)c(-c3nc4ccccc4s3)c(=O)oc2c1", "Stokes shift": "212^a nm"}
{"compound": "COP(=O)([c+]1c2ccc(N(C)C)cc2sc2cc(N(C)C)ccc21)N(C(C)C)C(C)C.O=C([O-])C(F)(F)F (centres unmarked)", "Stokes shift": "74^a nm"}

----------
test: Fluorescence lifetime; type: physicochemical; conditions: in acetonitrile
Marks after values point to notes of the source that are not given here.

{"smiles_string": "CCN(CC)c1ccc2c(P(=O)(OC)OC)c(-c3nc4ccccc4s3)c(=O)oc2c1", "fluorescence lifetime": "2.55^a ns"}
{"smiles_string": "COP(=O)(OC)c1c(-c2nc3ccccc3s2)c(=O)oc2cc(N3CC(O)C3)ccc12", "fluorescence lifetime": "1.99^a ns"}
{"smiles_string": "CCN(CC)c1ccc2c(P(=O)(OC(C)(C)C)OC(C)(C)C)c(-c3nc4ccccc4s3)c(=O)oc2c1", "fluorescence lifetime": "2.49^a ns"}

----------
experiment: Emission spectra and fluorescence quantum yield; assay type: physicochemical; conditions: in aq. PBS, pH 7.4
Marks after values point to notes of the source that are not given here.
In this section, each of the compounds is paired with its reported Stokes shift.

{"compound": "CN(C)c1ccc2c([PH](=O)[O-])c3ccc(N(C)C)cc3[o+]c2c1", "Stokes shift": "37^b nm"}
{"compound": "COP(=O)([C+]1c2ccc(N(C)C)cc2-c2cccc3c(N(C)C)ccc1c23)N(C(C)C)C(C)C.O=C([O-])C(F)(F)F (stereo not shown)", "Stokes shift": "138^b nm"}
{"compound": "CCN(CC)c1ccc2c(P(=O)(O)O)c(-c3nc4ccccc4s3)c(=O)oc2c1", "Stokes shift": "194^b nm"}
{"compound": "CN(C)c1ccc2c(P(=O)([O-])CCC(=O)O)c3ccc(=[N+](C)C)cc-3oc2c1", "Stokes shift": "38^b nm"}
